Test system: naïve human CD4+ T-cells and dendritic cells
Type: cell-based
Condition label: Ber e 1 dataset, background 4.27%, 5 μM peptide
Property measured: T-cell epitope designation

Ask: Retrieve T-cell epitope designation measured for LEGMDESCRCEGLRM [peptide #12] and print it.
Reply: minor epitopes

Ask: Retrieve T-cell epitope designation measured for MQPRGEQMRRMMRLA [peptide #20] and print it.
Reply: minor epitopes
